Measured pIC50 accompanies every entry in the list below.
- measured-on: CDK2/CycE (Homo sapiens, UniProt P24941)
- run-description: CDK2/CycE kinase assay (TR-FRET, Method 2)
// field semantics: pIC50 = negative decimal log of concentration (mol/L)

COc1cc(F)ccc1-c1nc(Nc2cccc(CS(=O)(=O)Cc3ccccc3)c2)ncc1F    5.96

Item under review: COc1cc(F)ccc1-c1nc(Nc2cccc(CS(=O)(=O)CCO)c2)ncc1F . Reported pIC50?
6.51

Item under review: CS(=O)(=O)Cc1cccc(Nc2ncc(F)c(-c3cccc4c3OCCC4)n2)c1 . Reported pIC50?
6.52

Item under review: O=S(=O)(Cc1cccc(Nc2ncc(F)c(-c3cccc4c3OCCC4)n2)c1)C1CC1 . Reported pIC50?
6.68

Item under review: CS(=O)(=O)Cc1cccc(Nc2ncc(F)c(-c3ccc(F)cc3OCc3ccccc3)n2)c1 . Reported pIC50?
6.08

Item under review: CS(=O)(=O)Cc1cccc(Nc2ncc(F)c(-c3ccc(F)cc3OCc3cccnc3)n2)c1 . Reported pIC50?
6.09

Item under review: COc1cc(F)ccc1-c1nc(Nc2cc(F)cc(CS(C)(=O)=O)c2)ncc1F . Reported pIC50?
6.70

====

- measured-on: CDK9/CycT1 (Homo sapiens)
Measured pIC50 accompanies every entry in the list below.
// field semantics: pIC50 = negative decimal log of concentration (mol/L)

O=S(=O)(Cc1cccc(Nc2ncc(F)c(-c3ccc(F)cc3OCc3ccccc3)n2)c1)C1CCCCC1    7.01
COCCS(=O)(=O)Cc1cccc(Nc2ncc(F)c(-c3ccc(F)cc3OCc3ccccc3)n2)c1    8.00

Short answer please: pIC50, CDK9/CycT1 (Homo sapiens), entry COc1cc(F)ccc1-c1nc(Nc2cccc(CS(=O)(=O)Cc3ccccc3)c2)ncc1F
7.08

Short answer please: pIC50, CDK9/CycT1 (Homo sapiens), entry CC(C)(C)S(=O)(=O)Cc1cccc(Nc2ncc(F)c(-c3ccc(F)cc3OCc3ccccc3)n2)c1
7.10

Short answer please: pIC50, CDK9/CycT1 (Homo sapiens), entry CC(C)S(=O)(=O)Cc1cccc(Nc2ncc(F)c(-c3ccc(F)cc3OCc3ccccc3)n2)c1
7.70

====

- System: NCI-H460 cells
- run-description: Proliferation assay, NCI-H460
- Format: cell-based
- run-conditions: Homo sapiens, NCI-H460, 96 h, read-out: Inhibition of NCI-H460 cell proliferation IC50
readout-label: pIC50
// field semantics: pIC50 = negative decimal log of concentration (mol/L)

Item under review: CS(=O)(=O)Cc1cccc(Nc2ncc(F)c(-c3cccc4c3OCCO4)n2)c1 [Example 13] . Reported pIC50?
6.47

====

Measured IC50 accompanies every entry in the list below.
- measured-on: CDK9/CycT1 (Homo sapiens, UniProt P50750)
- Sequence (P50750 whole entry): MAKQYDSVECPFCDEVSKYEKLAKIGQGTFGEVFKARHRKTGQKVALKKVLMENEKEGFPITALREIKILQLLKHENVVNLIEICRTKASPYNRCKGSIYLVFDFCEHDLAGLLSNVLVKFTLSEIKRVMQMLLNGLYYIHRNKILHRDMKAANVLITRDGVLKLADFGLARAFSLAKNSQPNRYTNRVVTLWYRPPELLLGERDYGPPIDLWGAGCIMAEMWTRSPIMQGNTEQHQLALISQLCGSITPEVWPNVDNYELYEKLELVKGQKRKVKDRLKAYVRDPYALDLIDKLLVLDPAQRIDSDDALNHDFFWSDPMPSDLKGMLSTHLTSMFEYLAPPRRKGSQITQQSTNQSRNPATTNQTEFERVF
- Sequence (O60563 whole entry partner): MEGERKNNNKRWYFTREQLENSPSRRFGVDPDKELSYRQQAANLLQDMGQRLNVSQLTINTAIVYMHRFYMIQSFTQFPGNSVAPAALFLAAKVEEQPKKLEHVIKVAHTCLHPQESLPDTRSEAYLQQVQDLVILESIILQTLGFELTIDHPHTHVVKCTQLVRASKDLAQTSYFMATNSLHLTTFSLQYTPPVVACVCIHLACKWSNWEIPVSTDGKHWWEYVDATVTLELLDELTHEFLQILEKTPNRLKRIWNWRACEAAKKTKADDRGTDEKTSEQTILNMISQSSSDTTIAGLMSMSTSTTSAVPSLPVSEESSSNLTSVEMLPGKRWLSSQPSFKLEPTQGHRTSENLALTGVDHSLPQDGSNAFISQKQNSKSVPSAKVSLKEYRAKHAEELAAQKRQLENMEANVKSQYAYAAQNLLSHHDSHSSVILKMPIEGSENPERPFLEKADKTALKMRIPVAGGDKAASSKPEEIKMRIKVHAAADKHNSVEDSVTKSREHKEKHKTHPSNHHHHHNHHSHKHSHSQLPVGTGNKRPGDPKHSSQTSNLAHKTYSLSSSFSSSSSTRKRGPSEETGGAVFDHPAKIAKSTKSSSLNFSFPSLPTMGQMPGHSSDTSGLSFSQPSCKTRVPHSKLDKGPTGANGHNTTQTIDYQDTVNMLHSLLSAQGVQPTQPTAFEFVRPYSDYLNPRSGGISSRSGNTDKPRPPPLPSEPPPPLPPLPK
- run-description: CDK9/CycT1 kinase assay (TR-FRET, Method 1a)
State the value with its unit after it.

COCCS(=O)(=O)Cc1cccc(Nc2ncc(F)c(-c3ccc(F)cc3OCc3ccccc3)n2)c1 [Example 3]    10 nM
COc1cc(F)ccc1-c1nc(Nc2cccc(CS(=O)(=O)C3CC3)c2)ncc1F [Example 14]    8 nM
COc1cc(F)ccc1-c1nc(Nc2cccc(CS(=O)(=O)CCO)c2)ncc1F [Example 8]    9 nM
COc1cc(F)ccc1-c1nc(Nc2cccc(CS(=O)(=O)Cc3ccccc3)c2)ncc1F [Example 15]    10 nM
CC(C)(C)S(=O)(=O)Cc1cccc(Nc2ncc(F)c(-c3ccc(F)cc3OCc3ccccc3)n2)c1 [Example 4]    29 nM
CC(C)S(=O)(=O)Cc1cccc(Nc2ncc(F)c(-c3ccc(F)cc3OCc3ccccc3)n2)c1 [Example 5]    14 nM
CS(=O)(=O)Cc1cccc(Nc2ncc(F)c(-c3ccc(F)cc3OCc3cccnc3)n2)c1 [Example 16]    8 nM
CS(=O)(=O)Cc1cccc(Nc2ncc(F)c(-c3cccc4c3OCCO4)n2)c1 [Example 13]    6 nM

Short answer please: IC50, CDK9/CycT1 (Homo sapiens, UniProt P50750), entry CS(=O)(=O)Cc1cccc(Nc2ncc(F)c(-c3ccc(F)cc3OCc3ccccc3)n2)c1 [Example 2]
8 nM

Short answer please: IC50, CDK9/CycT1 (Homo sapiens, UniProt P50750), entry O=S(=O)(Cc1cccc(Nc2ncc(F)c(-c3ccc(F)cc3OCc3ccccc3)n2)c1)C1CCCCC1 [Example 6]
51 nM

====

- measured-on: CDK9/CycT1 (Homo sapiens)
Label key: MET means IC50 under 20 nM; NOT MET means IC50 of 20 nM or more.

COc1cc(F)ccc1-c1nc(Nc2cccc(CS(=O)(=O)C3CC3)c2)ncc1F    NOT MET
CS(=O)(=O)Cc1cccc(Nc2ncc(F)c(-c3ccc(F)cc3OCc3cccnc3)n2)c1    MET
CS(=O)(=O)Cc1cccc(Nc2ncc(F)c(-c3ccc(F)cc3OCc3ccccc3)n2)c1    MET

Consider the molecule COc1cc(F)ccc1-c1nc(Nc2cccc(CS(=O)(=O)CCO)c2)ncc1F . Is its IC50 strictly less than 20 nM?
NOT MET

Consider the molecule CS(=O)(=O)Cc1cccc(Nc2ncc(F)c(-c3cccc4c3OCCO4)n2)c1 . Is its IC50 strictly less than 20 nM?
MET
